B1: EHEE_rd4_0726 (parent)
chain: DIEITTNGEEDAKRVIKELQKRNLEYHIEVHGNQWVIKVR

- Variants of: B1
- Protocol Notes: folding stability dG (cDNA display proteolysis); higher = more stable
- Applied Conditions: PBS, room temperature
Tag: Condition met if measured folding stability dG is not below 2 kcal/mol, Condition not met if it is.

As a guide, the following entries are already answered.
>>> answer_label("R14W")
"Condition met"
>>> answer_label("K38C")
"Condition met"
>>> answer_label("K17M")
"Condition met"
>>> answer_label("I4K")
"Condition not met"
>>> answer_label("N7C")
"Condition met"
>>> answer_label("I16L")
"Condition not met"

Does the variant N7R have recorded folding stability dG that is 2 kcal/mol or more? Condition met
